src = ChEMBL document CHEMBL5308504

# TESTED_TARGET: Tyrosine-protein kinase ABL1 (Homo sapiens)
# MEASUREMENT_SETUP: Compound concentration 20.0 uM, Protein concentration 2.0 uM, Result type QC Liability
Recorded ΔTm by entry
Express your answer in °C, writing the number without its unit.

Observe how each entry below is paired with its result.
CC(C)Oc1ccc(Cc2ccc(NC3=NCCN3)cc2)cc1: 0.13
CCCNc1ccc2ncc(-c3ccncc3)n2n1: 5.22
CNc1nc(-c2ccc3c(N)n[nH]c3c2)cc(N2C[C@@H](C(=O)NC3CCCCC3)CC[C@H]2C)n1: 0.49

# query: ΔTm of entry COc1ccccc1S(=O)(=O)Nc1ccc2c(c1)CN(C)C(=O)N2
0.09

Also check COc1cc(C(=O)NC2CCN(C)CC2)ccc1Nc1ncc2c(n1)N(C1CCCC1)CC(F)(F)C(=O)N2C
0.35

Also check NCc1ccc(OCCCc2sc(-c3ccc4c(c3)/C(=N/Nc3nc5ccccc5s3)CCC4)nc2C(=O)O)cc1
0.43

###

# TESTED_TARGET: Aurora kinase A (Homo sapiens) (UniProt O14965)
# Sequence (whole entry): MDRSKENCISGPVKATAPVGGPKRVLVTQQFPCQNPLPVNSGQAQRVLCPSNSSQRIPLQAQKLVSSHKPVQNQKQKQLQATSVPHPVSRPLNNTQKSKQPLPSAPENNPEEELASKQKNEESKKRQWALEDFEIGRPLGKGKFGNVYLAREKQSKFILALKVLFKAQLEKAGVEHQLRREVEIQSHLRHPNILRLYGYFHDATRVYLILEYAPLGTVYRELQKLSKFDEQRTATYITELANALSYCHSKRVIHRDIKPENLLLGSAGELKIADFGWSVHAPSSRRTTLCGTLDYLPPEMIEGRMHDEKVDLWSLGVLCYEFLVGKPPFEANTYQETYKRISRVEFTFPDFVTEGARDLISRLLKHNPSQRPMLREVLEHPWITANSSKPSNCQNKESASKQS
# MEASUREMENT_SETUP: Compound concentration 20.0 uM, Protein concentration 2.0 uM, Result type QC Liability
# Description: Thermal Shift Assay. Domain: start/stop: E122-S403
MEASURED_ATTRIBUTE: ΔTm (°C)
Express your answer in °C, writing the number without its unit.

COCCOCn1c(S(C)(=O)=O)nc2c1c(=O)n(C)c(=O)n2C: 0.11
CCS(=O)(=O)c1ccc(OC)c(Nc2ncc(-c3cccc(F)c3)o2)c1: 0.2

Query for Aurora kinase A (Homo sapiens) (UniProt O14965): what ΔTm does the record show for COc1cc(C(=O)NC2CCN(C)CC2)ccc1Nc1ncc2c(n1)N(C1CCCC1)CC(F)(F)C(=O)N2C ?
0.78

###

Recorded ΔTm by entry
# TESTED_TARGET: Aurora kinase A (Homo sapiens) (UniProt O14965)
# MEASUREMENT_SETUP: Compound concentration 20.0 uM, Protein concentration 2.0 uM, Result type QC Liability
Express your answer in °C, writing the number without its unit.

Observe how each entry below is paired with its result.
O=C(O)C[C@H]1CCn2c1c(Sc1ccc(Cl)cc1)c1ccc(F)cc12: -0.18
Cn1c(C(=O)N[C@@H](CO)c2ccc(C(=O)O)cc2)cc2cc(Cl)ccc21: 0.34
Cc1cccc(-c2[nH]c(CNc3ccccc3F)nc2-c2ccc3ncnn3c2)n1: 0.8
CC(C)(c1ccc(OCc2cccc(COc3ccc(C(=N)N)cc3)c2)cc1)c1ccc(O[C@@H]2O[C@H](C(=O)O)[C@@H](O)[C@H](O)[C@H]2O)cc1: -5.6
CCO[C@@H](Cc1ccc(OCCc2ccc(OS(C)(=O)=O)cc2)cc1)C(=O)O: 0.09

# query: ΔTm of entry Cn1ccc(Cn2cnc(-c3ccc(F)cc3)c2-c2ccnc3[nH]ccc23)n1
-0.97

Also check CC(C)c1nc2c(c3c1[C@H](c1ccc(C(F)(F)F)cc1)OC31CCOCC1)[C@H](O)CC(C)(C)C2
-0.26

Also check C=CC(=O)Nc1cccc(C(=O)Nc2ccc(Nc3cc(-c4c(-c5ccc(F)cc5)nc(SC)n4C)ccn3)cc2)c1
1.08

Also check COCCNC1CCC(Nc2cc(-c3csc(NCC4(C#N)CCOCC4)n3)c(Cl)cn2)CC1 (centres undefined)
1.44

###

# TESTED_TARGET: Aurora kinase A (Homo sapiens)
# Sequence (whole entry): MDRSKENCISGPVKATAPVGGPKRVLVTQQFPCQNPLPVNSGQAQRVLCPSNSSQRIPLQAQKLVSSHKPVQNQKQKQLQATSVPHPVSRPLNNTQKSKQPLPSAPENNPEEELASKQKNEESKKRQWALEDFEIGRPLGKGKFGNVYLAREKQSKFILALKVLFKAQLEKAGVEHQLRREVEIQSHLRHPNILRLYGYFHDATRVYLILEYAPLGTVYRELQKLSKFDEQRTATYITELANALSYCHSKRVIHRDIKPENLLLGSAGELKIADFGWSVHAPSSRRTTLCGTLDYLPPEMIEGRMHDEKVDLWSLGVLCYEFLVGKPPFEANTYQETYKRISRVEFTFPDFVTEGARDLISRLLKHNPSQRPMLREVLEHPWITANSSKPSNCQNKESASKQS
# MEASUREMENT_SETUP: Compound concentration 20.0 uM, Protein concentration 2.0 uM, Result type QC Liability
MEASURED_ATTRIBUTE: ΔTm (°C)
Express your answer in °C, writing the number without its unit.

Cc1ccc(NC(=O)c2ccc3c(c2)OCCO3)cc1NC(=O)c1ccc2nc(OCCN3CCCC3)ccc2c1: -0.43

# query: ΔTm of entry CCCCCCCC/C=C\CCCCCCCC(=O)NCCO
-2.91

Also check NC(=O)OC[C@H](NC(=O)Cn1nc(-c2ccc(Cl)cc2)n(C[C@H](O)C(F)(F)F)c1=O)c1cccc(C(F)(F)F)c1
0.82

Also check COC(=O)c1ccc2c(c1)NC(=O)/C2=C(\Nc1ccc(-c2nccn2C)cc1)c1ccccc1
-1.46

Also check O=C1COc2cc(C(=O)N(Cc3ccc(C(=O)Nc4ccncn4)cc3)C3CC3)ccc2N1
0.08

Also check CSc1ccc(C(=O)/C=C/c2cc(C)c(OC(C)(C)C(=O)O)c(C)c2)cc1
4.96

Also check COc1cc(N[C@@H]2CCCC[C@]2(O)C(F)(F)F)ccc1F
-1.49

###

Recorded ΔTm by entry
# TESTED_TARGET: Casein kinase I isoform delta (Homo sapiens)
# MEASUREMENT_SETUP: Compound concentration 20.0 uM, Protein concentration 2.0 uM, Result type QC Liability
# Description: Thermal Shift Assay. Domain: start/stop: M1-K294
Numbered stars: 1 amine (or outer) side, 2 acyl side, 3 side chain; on linkers, the order of the positions; unused ones are H or OH. Bridge positions count the residues as written; N and C are the ends. Square brackets hold non-standard residues; d marks the D form. Peptide text beside a SMILES is read from it. I, II: the chains in the order shown. Hexamethylenediamine = C(CCCN[*:2])CCN[*:1]; Dip = N[C@H](C(=O)O)C(c1ccccc1)c1ccccc1; Chg = N[C@H](C(=O)O)C1CCCCC1; NMeA = CN[C@@H](C)C(=O)O
Express your answer in °C, writing the number without its unit.

COc1cc(Oc2nc(-c3ccc(NC(=O)C4CCOC4)cc3)nn3c(C)nc(C)c23)cc(OC)c1OC (stereo not given): 0.03
CN[C@@H](C)C(=O)N[C@H](C(=O)N1CCC[C@H]1c1nc(C(=O)c2ccc(F)cc2)cs1)C1CCCCC1: 0.62
CCc1nc(-c2cccc(C)c2)c(-c2ccncc2)s1: 3.88
CC(C)(C)c1cnc(CSc2cnc(NC(=O)C3CCNCC3)s2)o1: 1.29
C#Cc1cnc2[nH]cc(-c3cccc4c3CCN4C(=O)[C@@H]3CCCN3C#N)c2c1: 2.51

# query: ΔTm of entry O=C1CN(c2ccccc2F)C(NCCN2CCOCC2)=C1c1nc2cc(Br)ccc2c(=O)[nH]1
0.32

Also check Cc1cc(CN)cc(C)c1-c1ncn(C)c1-c1cncn1C
0.37

Also check Cc1cc(OCCC(C)(C)O)cc(C)c1-c1ccc(F)c2c1CC[C@H]2Oc1ccc2c(c1)OC[C@H]2CC(=O)O
-1.62

Also check CN[C@@H](C)C(=O)N[C@H](C(=O)N1CCC[C@H]1C(=O)N[C@H](C(=O)NCCCCCCNC(=O)[C@@H](NC(=O)[C@@H]1CCCN1C(=O)[C@@H](NC(=O)[C@H](C)NC)C1CCCCC1)C(c1ccccc1)c1ccccc1)C(c1ccccc1)c1ccccc1)C1CCCCC1 (I: H-[NMeA][Chg]P[Dip] / II: H-[NMeA][Chg]P[Dip]; linker I:C-II:C via Hexamethylenediamine)
-0.57

Also check COc1cc(Cl)c(C(=O)N[C@@H](CN[C@H]2CC[C@@H](N)CC2)Cc2ccc(C#N)cc2)cc1-c1ccc(CN[C@H](C)c2ccc(C)cc2)o1
-0.07

###

# TESTED_TARGET: Glycogen synthase kinase-3 beta (Homo sapiens) (UniProt P49841)
# Sequence (P49841 whole entry, looked up): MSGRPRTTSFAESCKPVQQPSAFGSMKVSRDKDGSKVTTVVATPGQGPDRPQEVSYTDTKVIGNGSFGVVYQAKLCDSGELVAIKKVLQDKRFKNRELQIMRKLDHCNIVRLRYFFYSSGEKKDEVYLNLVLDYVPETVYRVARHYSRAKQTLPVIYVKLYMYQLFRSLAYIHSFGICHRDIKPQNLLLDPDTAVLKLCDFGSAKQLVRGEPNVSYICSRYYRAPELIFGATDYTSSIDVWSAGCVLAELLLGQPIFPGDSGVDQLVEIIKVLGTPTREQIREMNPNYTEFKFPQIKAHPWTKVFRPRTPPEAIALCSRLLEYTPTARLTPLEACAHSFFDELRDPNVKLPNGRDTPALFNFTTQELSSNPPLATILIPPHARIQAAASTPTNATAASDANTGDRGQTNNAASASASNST
# MEASUREMENT_SETUP: Compound concentration 20.0 uM, Protein concentration 2.0 uM, Result type QC Liability
# Description: Thermal Shift Assay. Domain: start/stop: M26-R383
MEASURED_ATTRIBUTE: ΔTm
Form field: result (number plus unit)

Observe how each entry below is paired with its result.
COc1ccc(CC[C@@H](OC(=O)[C@H]2CCCCN2C(=O)[C@@H](c2cc(OC)c(OC)c(OC)c2)C2CCCCC2)c2cccc(OCCN3CCOCC3)c2)cc1OC: -1.12 °C
O=C(O)c1ccnc(N2CC(O)(c3ccc(OCc4c(-c5c(Cl)cccc5Cl)noc4C4CC4)cc3Cl)C2)c1: -0.81 °C
O=C(O)c1cc2cc(Cc3cccnc3)ccc2o1: 0.46 °C
CSc1ccc(C[C@@H](C)C(=O)O)cc1Nc1nc(N2CC[C@H](N(C)C)C2)cc(C(F)F)c1C#N: 0.05 °C
CC(C)S(=O)(=O)c1ccccc1Nc1nc(N[C@@H]2CCCN(CCCCCCCNC(=O)COc3cccc4c3C(=O)N(C3CCC(=O)N(C)C3=O)C4=O)C2)ncc1Cl (stereo partly drawn): 8.52 °C
COc1cc(N[C@@H]2CCCC[C@]2(O)C(F)(F)F)ccc1F: -0.31 °C
COc1cc2nc([C@@H]3CCCS(=O)(=O)C3)n(C)c2cc1NC(=O)c1cccc(C(C)(F)F)n1: -1.39 °C
COc1cnccc1Nc1nc(-c2nn(Cc3c(F)cc(OCCO)cc3F)c3ccccc23)ncc1OC: -5.93 °C

# query: ΔTm of entry COc1cc(-c2cc3ncccc3c(OC[C@H]3CNC(=O)C3)n2)cc(OC)c1OC1CCOCC1
-0.87 °C

Also check CC(=O)Oc1ccc2c(c1)[C@@]1(C)CCC[C@](C)(C(=O)OC(=O)[C@@]3(C)CCC[C@]4(C)c5cc(OC(C)=O)ccc5CC[C@@H]34)[C@@H]1CC2
-0.85 °C

Also check CC(C)c1cnc(NC(=O)Cc2ccccc2)s1
3.64 °C
